# pIC50 against Vascular endothelial growth factor receptor 2 (Homo sapiens, UniProt P35968), merged from multiple literature sources
Numbers only, as −log10 of the molar value.

These solved cases illustrate the format of a correct answer.
# pIC50 of COc1cc(Nc2nccc(N(C)c3ccc4[nH]ccc4c3)n2)cc(N2CCOCC2)c1 = 7.77

# pIC50 of CNC(=O)c1cc2c(Oc3ccc(NC(=S)NC(=O)Cc4ccccc4)cc3F)ccnc2cc1OC = 7.52

Please give pIC50 for each item listed below.
1. COc1cc(CN2C(=O)C(c3cc(OC)c(OC)c(OC)c3)=C(c3c[nH]c4ccccc34)C2=O)c([N+](=O)[O-])cc1OC
2. CC(=O)OC[C@H]1O[C@@H](n2cc(COc3ccc4c(-c5ccccc5)cc(=O)oc4c3)nn2)[C@H](OC(C)=O)[C@@H](OC(C)=O)[C@@H]1OC(C)=O
3. O=C(NN=Cc1ccccc1O)c1ccc(NC(=O)c2cccnc2)cc1
4. CNC(=O)c1ccccc1Sc1ccc2c(N=Nc3ccc[nH]3)n[nH]c2c1
5. COc1cc2nc(-c3ccc(C(F)(F)F)cc3)cc(OCCCNC3CCN(C)CC3)c2cc1OC

// result
1: 5.34; 2: 4.35; 3: 6.89; 4: 6.91; 5: 5.61

---

# IC50 against Vascular endothelial growth factor receptor 2 (Homo sapiens, UniProt P35968), merged from multiple literature sources
Answers are plain numbers, in µM.

# IC50 of O=C(Nc1cccc(C(=O)c2ccc3nc(C(=O)NC4CC4)[nH]c3c2)c1)Nc1cccc(C(F)(F)F)c1 = 1.32

# IC50 of c1nc(Nc2ccc(N3CCOCC3)cc2)cc(Nc2ccc3[nH]ccc3c2)n1 = 1.2

Now, please, on to the next compound.
# IC50 of NNC(=O)CSc1nc2c(F)cc(F)cc2c(=O)n1Cc1ccccc1 = 1.37

---

# IC50 against UniProt P35968, merged from multiple literature sources
One number for each entry, in µM.

# IC50 of CCOC(=O)CSc1nc2c(F)cc(F)cc2c(=O)n1Cc1ccccc1 = 2.19

# IC50 of COc1cc2nccc(Oc3ccc(NC(=O)N4CCN(c5ccccc5)C4=O)cc3F)c2cc1OC = 0.01

# IC50 of CCOc1ccc(Nc2nccc(-c3ccc4c(c3)CCCC(=O)N4)n2)cc1 = 2

# IC50 of O=C1/C(=C/c2ccccc2Br)CNC/C1=C\c1ccccc1Br = 28.6

# IC50 of Cc1ccc(Nc2nccc(-c3ccc4c(c3)CCCC(=O)N4)n2)cc1 = 1.8

# IC50 of COCCN1CCN(c2ccc(C(=O)C=Cc3ccc4ccccc4c3)cc2)CC1 = 0.098

Please give IC50 for each item listed below.
1. NNC(=O)CSc1nc2ccc(Cl)cc2c(=O)n1Cc1ccccc1
2. S=C(Nc1ccc(-c2cccnc2)cc1)Nc1ccc(Cl)cc1Cl
3. COc1cc2nc(-c3ccc(C)cc3)cc(OCCCNCC3CCCO3)c2cc1OC (stereo not shown)

// result
[0.651, 0.0235, 1.19]
